# TESTED_SYSTEM: human central cannabinoid (CB 1) receptor (Homo sapiens, UniProt P21554)
# Sequence (P21554 whole entry): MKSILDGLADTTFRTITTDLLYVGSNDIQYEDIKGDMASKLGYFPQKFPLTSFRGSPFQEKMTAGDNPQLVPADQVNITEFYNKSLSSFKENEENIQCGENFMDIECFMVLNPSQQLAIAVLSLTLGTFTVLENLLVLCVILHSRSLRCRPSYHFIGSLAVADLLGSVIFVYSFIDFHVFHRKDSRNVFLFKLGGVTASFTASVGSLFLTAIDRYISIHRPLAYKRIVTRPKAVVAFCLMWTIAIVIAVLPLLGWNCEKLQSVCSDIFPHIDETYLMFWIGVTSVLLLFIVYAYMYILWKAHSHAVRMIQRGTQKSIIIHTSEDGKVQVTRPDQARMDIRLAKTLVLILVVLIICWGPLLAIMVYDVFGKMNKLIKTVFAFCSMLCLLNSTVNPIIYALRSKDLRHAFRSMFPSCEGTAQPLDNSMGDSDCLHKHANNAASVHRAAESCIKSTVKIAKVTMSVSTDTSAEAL
EXPERIMENTAL_ENDPOINT: pIC50
# pIC50: negative log10 of molar concentration; output just the value

query: Give the observed pIC50 of CCCCCCC(C)(C)c1cc(O)c2c(c1)OC(C)(C)[C@@H]1CC=C(CO)C[C@@H]21 [HU-210, reference compound] for human central cannabinoid (CB 1) receptor (Homo sapiens, UniProt P21554).
result: 8.60

Just for reference, patent US5605906A is where these values come from.
